Data origin: the supplement of paper PMC10567573

- Run description: protein stability index of a GFP-peptide fusion (GPS, HEK-293T) (PSI 1-6); higher = more stable;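 also: 24-mer peptide tiles fused after GFP, lentivirally expressed, FACS-sorted into six equal bins by GFP/DsRed ratio, decoded by Illumina sequencing, PSI is the read-weighted mean bin number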
- Condition details: treatment: DMSO; c terminus: native
Catalogue of protein stability index values
Readout kind: protein stability index

1) NELQHDLDVVSDALAKVSRKPSI [TPH1]
5.17
2) AAKKVAPLMAKAIRDYKGRFSRR [ELOA2]
2.79
3) LFSLMVVNRLTEELGCDEIIDRE [EID1]
3
4) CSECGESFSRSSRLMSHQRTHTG [ZNF263]
3.02

----------
- Run description: protein stability index of a GFP-peptide fusion (GPS, HEK-293T) (PSI 1-6); higher = more stable
- Condition details: treatment: DMSO; c terminus: a fixed tail appended
Consider the following partition of reported protein stability index into named classes: one (below 3), two (3 to below 4), three (4 or more)

1. RRVKLQLWDTSGQGRFCTIFRSYS [RAB40B]
one
2. QRLIKKVQEAVLDKWVNDPHRMDR [GOLPH3]
one
3. VQREKDLPNYNWNSFGLRFGKREA [KISS1]
two
4. RPNRQLGSMVEIAKQLQAVKRKIR [TRIM39]
one
5. NCKLATRAKDFLPADIQAQFAISR [SNX8]
one
6. TDEEEGLIWVVGPVLAVVFIICIV [PTPRD]
one
7. INCQLSDPSSTKPGTLLKTSPSPE [TRIM14]
three
8. AKGNTALHDCAESGSLEILQLLLG [FEM1A]
one
9. EREEITTKKRKLGKNPDVDTSFLP [FAM50A]
three
10. QSSPSFAEKCLDFLVDMFNDEIEE [INTS4]
one
11. IINAKSNDGWTPLHVAAHYGRDSF [ASB7]
one
12. SQGAISEGAQRDRFPGRKQPGVHE [C22orf31]
three
13. VGVDRAFPLKPMVHRKSCSTGEAG [ZC2HC1C]
two
14. DLRADDLPGPAFESYESMELACPA [KLHDC2]
three
15. VLQALFYLLDRAVDSFETQRNGLV [PTPN9]
one
16. RPTYTPPSIMPQKHWVYVKRGGNC [ZBTB22]
one
17. NLIYRDVKPENFLIGRPGNKTQQV [CSNK1G3]
two
18. EGRFWKSKNEDRGEEEAESSISST [ZMYND11]
three
19. RAPQLHLEYRFYEQLGSGDGIPQV [CSNK1G3]
two
20. HSRFVELSEAYRVLSREQSRRSYD [DNAJC4]
two
21. YMSINTHLGKEQSRRDDLEALGHM [CSNK1G1]
two
22. AQSEAEKKLKKDDKKKELQELNEL [ZC3H15]
three
23. DNAPVFTLPEYRVSVPENLPVGTQ [PCDHGA10]
three
24. TKVGSFMIRESETKKGFYSLSVRH [SLA]
one
